Assay overview: Cell cytotoxicity test: protection of HT22 cells against glutamate toxicity (EC50) and cytotoxicity of the compounds (CC50), MTT
Format: cell-based, mouse
Measurement setup: mouse, HT22 cells (mouse hippocampal neuron)
Counter-ions that a name gives are not always drawn.
Define the label as Criterion met when CC50 at 24 h is strictly less than 10 µM and as Criterion not met in all remaining cases.

Observe how each entry below is paired with its result.
query: Does the reported CC50 at 24 h of the following compound sit strictly below 10 µM? COC(=O)c1ccccc1Nc1cc2c(cc1O)[C@]13CCCC[C@@H]1[C@H](C2)NCC3 [Example 108, TFA salt]
result: Criterion not met

query: Does the reported CC50 at 24 h of the following compound sit strictly below 10 µM? Oc1cc2c(cc1NC1CCCCC1)C[C@@H]1NCC[C@]23CCCC[C@H]13 [Example 93, TFA salt]
result: Criterion not met

query: Does the reported CC50 at 24 h of the following compound sit strictly below 10 µM? Oc1cc2c(cc1Nc1ccccc1Cl)C[C@@H]1NCC[C@]23CCCC[C@H]13 [Example 48, TFA salt]
result: Criterion met

query: Does the reported CC50 at 24 h of the following compound sit strictly below 10 µM? Cc1ccc(-c2cc3c(cc2O)[C@]24CCCC[C@@H]2[C@H](C3)NCC4)cc1 [Example 75, TFA salt]
result: Criterion met

Next:
query: Does the reported CC50 at 24 h of the following compound sit strictly below 10 µM? Oc1cc2c(cc1Nc1ccc3c(c1)CCCC3)C[C@@H]1NCC[C@]23CCCC[C@H]13 [Example 71, TFA salt]
result: Criterion met

query: Does the reported CC50 at 24 h of the following compound sit strictly below 10 µM? COc1ccccc1Nc1cc2c(cc1O)[C@]13CCCC[C@@H]1[C@H](C2)NCC3 [Example 42, TFA salt]
result: Criterion not met

query: Does the reported CC50 at 24 h of the following compound sit strictly below 10 µM? Nc1ccc(Nc2cc3c(cc2O)[C@]24CCCC[C@@H]2[C@H](C3)NCC4)cc1 [Example 32, TFA salt]
result: Criterion not met
